Molecular target: GST-Nv-NF-kB (Ser allele) (Nematostella vectensis, UniProt A7UNT2 2-411)
Sequence: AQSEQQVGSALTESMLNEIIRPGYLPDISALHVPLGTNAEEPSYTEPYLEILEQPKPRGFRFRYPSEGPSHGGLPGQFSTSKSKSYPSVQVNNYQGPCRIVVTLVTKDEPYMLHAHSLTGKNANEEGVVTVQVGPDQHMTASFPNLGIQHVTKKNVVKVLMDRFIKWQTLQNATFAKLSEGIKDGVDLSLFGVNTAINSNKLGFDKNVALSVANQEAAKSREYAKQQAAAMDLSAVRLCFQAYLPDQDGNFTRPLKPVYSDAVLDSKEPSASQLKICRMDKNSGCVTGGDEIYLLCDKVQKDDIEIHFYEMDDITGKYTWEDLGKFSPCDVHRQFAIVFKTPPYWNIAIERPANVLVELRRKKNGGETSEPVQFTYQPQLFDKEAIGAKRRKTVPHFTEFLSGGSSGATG
Assay: protein-binding microarray (PBM); PBM: ~300 nM protein, 6 mM HEPES pH 7.8, 80 mM KCl, 0.5 mM EDTA, 0.5 mM EGTA, 6% glycerol, 35 ng/ul poly-dIdC, 1% milk, 1 h, room temperature; Ap Aiptasia and Nv Nematostella (sea anemones) / Co Capsaspora / Aq Amphimedon (sponge) / Dm Drosophila / Hu human; RHD is the Rel homology domain; high values mean tight binding
Details: dsDNA, one strand shown
Assign binding signal to each entry below.
Give bare numbers, in z-score.

Sample records with binding signal:
Query sequence: CCGATTAACATCAGGGGGACACCTGATGTTAATCGGGTCTTGATTCGCTTGACGCTGCTG
binding signal, z-score: 4.25
--
Query sequence: CCGATTAACATCAGGGGGTGGTATGATGTTAATCGGGTCTTGATTCGCTTGACGCTGCTG
binding signal, z-score: 3.98
--
Query sequence: CCGATTAACATCAAAATTCCCAGTGATGTTAATCGGGTCTTGATTCGCTTGACGCTGCTG
binding signal, z-score: 4.98
--
Query sequence: CCGATTAACATCAAAAATCTCCCTGATGTTAATCGGGTCTTGATTCGCTTGACGCTGCTG
binding signal, z-score: 6.86
--
Query sequence: CCGATTAACATCAGGGGATTTCATGATGTTAATCGGGTCTTGATTCGCTTGACGCTGCTG
binding signal, z-score: 10.8

List binding signal for every entry below, keeping the order given.
1. CCGATTAACATCACGAAATTCCCTGATGTTAATCGGGTCTTGATTCGCTTGACGCTGCTG
2. CCGATTAACATCAGGGAGTACCCTGATGTTAATCGGGTCTTGATTCGCTTGACGCTGCTG
3. CCGATTAACATCAGGGGGAGGTATGATGTTAATCGGGTCTTGATTCGCTTGACGCTGCTG
4. CCGATTAACATCAGGGGACGTACTGATGTTAATCGGGTCTTGATTCGCTTGACGCTGCTG

Ans:
1: 7.28; 2: 3.49; 3: 5.35; 4: 3.58

List binding signal for every entry below, keeping the order given.
1. CCGATTAACATCACCATGGGAAATGATGTTAATCGGGTCTTGATTCGCTTGACGCTGCTG
2. CCGATTAACATCAGGGGAGTCCATGATGTTAATCGGGTCTTGATTCGCTTGACGCTGCTG
3. CCGATTAACATCAGATATCCCCCTGATGTTAATCGGGTCTTGATTCGCTTGACGCTGCTG
4. CCGATTAACATCAAAAAAGTCCCTGATGTTAATCGGGTCTTGATTCGCTTGACGCTGCTG
5. CCGATTAACATCAGGGGGAAACATGATGTTAATCGGGTCTTGATTCGCTTGACGCTGCTG
6. CCGATTAACATCACTTTTTCCCCTGATGTTAATCGGGTCTTGATTCGCTTGACGCTGCTG
7. CCGATTAACATCAAGGGGTTCCCTGATGTTAATCGGGTCTTGATTCGCTTGACGCTGCTG

Ans:
1. 1.45
2. 4.15
3. 7.52
4. 11.5
5. 9.19
6. 9.65
7. 2.15

List binding signal for every entry below, keeping the order given.
1. CCGATTAACATCAAAATTTGCCCTGATGTTAATCGGGTCTTGATTCGCTTGACGCTGCTG
2. CCGATTAACATCAGGGGGAATCATGATGTTAATCGGGTCTTGATTCGCTTGACGCTGCTG
3. CCGATTAACATCAGGGGAGTTTATGATGTTAATCGGGTCTTGATTCGCTTGACGCTGCTG

Ans:
1. 1.28
2. 8.26
3. 7.68
